- Tested on: HSV-1 virus (KOS strain)
- PROCEDURE TEXT: HSV-1 viral yields in supernatants of OC3 cells, plaque assay
- Format: cell-based, Herpes simplex virus type 1
- EXPERIMENTAL CONTEXT: OC3 cells post-treated after HSV-1 infection (MOI 5), 19 hours
MEASURE NAME: viral yields in the supernatants, post-treatment

Form field: reported viral yields in the supernatants, post-treatment of C=C(CC[C@@H](C(=O)O)[C@H]1CC[C@@]2(C)C3=CC[C@H]4C(C)(C)[C@@H](O)CC[C@]4(C)C3=CC[C@]12C)C(C)C [A6, dehydroeburicoic acid] significantly reduced

Note, next up: C=C(CC[C@@H](C)[C@H]1CC[C@H]2C3=C(C(=O)C[C@]12C)[C@@]1(C)CCC(O)[C@](C)(O)C1CC3O)C(C)C(=O)O (stereo partly shown) [A4, antcin K] significantly reduced

Note, next up: C=C(CC[C@@H](C(=O)O)[C@H]1C[C@H](OC(C)=O)[C@@]2(C)C3=C(CC[C@]12C)[C@@]1(C)CC[C@H](O)C(C)(C)[C@@H]1CC3)C(C)C [A5, versisponic acid] significantly reduced
